System: aorta rings
EXPERIMENT DESCRIPTION: Vasorelaxant effect in vitro (phenylephrine-contracted rabbit aorta rings)
COND: Oryctolagus cuniculus; rabbit aorta rings, contraction induced by phenylephrine, 37° C., 0.1% DMSO; read-out: IC50 (concentration necessary to reduce the level of contraction by 50%)
Excerpt: B-1. Vasorelaxant Effect in Vitro Rabbits are stunned by a blow to the back of the neck and are exsanguinated. […] The force of contraction is detected with Statham UC2 cells, amplified and digitized via A/D converters (DAS-1802 HC, Keithley Instruments Munich), and recorded in parallel on chart recorders. […]
PROPERTY: IC50 (nM)

Nc1nc(N)nc(-n2nc(Cc3ccccc3F)c3ccccc32)n1    300

(I) Nc1nc(N)nc(-c2nc(Cc3ccccc3F)n3ccccc23)n1
(II) Nc1nc(N)nc(-n2nc(Cc3ccccc3F)c3ncccc32)n1
Challenge: From the items above, decide which of I and II has the lower IC50 reading. Which one? Tell me its label.
Response given: II
(II: 240 nM, I: 2900 nM)
